- system-tested: NK3 (Homo sapiens)
- Sequence (P29371 whole entry): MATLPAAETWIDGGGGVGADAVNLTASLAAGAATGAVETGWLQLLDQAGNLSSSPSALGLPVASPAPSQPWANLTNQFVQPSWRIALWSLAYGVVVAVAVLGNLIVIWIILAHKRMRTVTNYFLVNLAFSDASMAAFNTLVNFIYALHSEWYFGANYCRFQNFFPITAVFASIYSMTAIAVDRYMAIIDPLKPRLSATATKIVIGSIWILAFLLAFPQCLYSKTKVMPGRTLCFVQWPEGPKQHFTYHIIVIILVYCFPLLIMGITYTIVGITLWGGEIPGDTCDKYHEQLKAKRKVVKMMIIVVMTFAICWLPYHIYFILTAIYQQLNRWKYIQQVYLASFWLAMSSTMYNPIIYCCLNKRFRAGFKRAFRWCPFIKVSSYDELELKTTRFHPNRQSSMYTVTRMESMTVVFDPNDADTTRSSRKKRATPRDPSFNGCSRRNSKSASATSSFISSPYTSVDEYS
- assay-name: Signal transduction (ST), intracellular Ca++ (FLIPR), NK3
- Type: cell-based
- assay-context: read-out: pIC50 NK3 (converted)
value-type: IC50 (µM)
Return type: number; implicit unit µM.

A selection of reference data follows.
compound: Cn1cccc(C(=O)N2CCC(N3CCN(C4CCN(C(=O)c5cc(C(F)(F)F)cc(C(F)(F)F)c5)C(Cc5ccc(F)c(F)c5)C4)CC3)C2)c1=O (single isomer, unassigned) [Compound 368]
value-type: IC50
endpoint-result: 3.16
--
compound: O=C(C1CC1)N1CCC(N2CCN(C3CCN(C(=O)c4cc(C(F)(F)F)cc(C(F)(F)F)c4)C(Cc4ccc(F)cc4)C3)CC2)C1 (stereo not drawn)
value-type: IC50
endpoint-result: 2.51

# input for lookup
For the compound O=C(C(NCCO)c1ccccc1)N1CCC(N2CCN([C@H]3CCN(C(=O)c4cc(C(F)(F)F)cc(C(F)(F)F)c4)[C@H](Cc4ccccc4)C3)CC2)C1 (stereo partly drawn) , what IC50 is on record?
3.98
